Target: T1, recombinant chicken leptin binding domain (chLBD) (chicken)
T1 construct: The 1:1 complex with leptin has a predicted mass of 40.5 kDa, so chLBD is about 24.5 kDa
Assay: SPR (Biacore 3000), leptin mutant amine-coupled to CM5 chip, soluble chLBD as analyte, 25 C, 1:1 Langmuir fit, mean of 2 experiments
The label T is reserved for Kd strictly under 30 nM; F covers values equal to or above it.

In plain terms, does human leptin L39A/D40A/F41A/I42A mutant (ligand, Expressed with an extra Met-Ala at the N-terminus, Met removed; also called L39A/D40A/F41A/I42A (human)) VPIQKVQDDTKTLIKTIVTRINDISHTQSVSSKQKVTGAAAAPGLHPILTLSKMDQTLAVYQQILTSMPSRNVIRISNDLENLRDLLHVLAFSKSCHLPWASGLETLDSLGGVLEASGYSTEVVALSRLQGSLQDMLWQLDLSPGC come in under 30 nM for Kd?
F

In plain terms, does human leptin L39A/D40A/F41A mutant (ligand, Expressed with an extra Met-Ala at the N-terminus, Met removed; also called L39A/D40A/F41A (human)) VPIQKVQDDTKTLIKTIVTRINDISHTQSVSSKQKVTGAAAIPGLHPILTLSKMDQTLAVYQQILTSMPSRNVIRISNDLENLRDLLHVLAFSKSCHLPWASGLETLDSLGGVLEASGYSTEVVALSRLQGSLQDMLWQLDLSPGC come in under 30 nM for Kd?
T

In plain terms, does human leptin L39A/D40A mutant (ligand, also called L39A/D40A (human)) VPIQKVQDDTKTLIKTIVTRINDISHTQSVSSKQKVTGAAFIPGLHPILTLSKMDQTLAVYQQILTSMPSRNVIRISNDLENLRDLLHVLAFSKSCHLPWASGLETLDSLGGVLEASGYSTEVVALSRLQGSLQDMLWQLDLSPGC come in under 30 nM for Kd?
T

In plain terms, does ovine leptin F41A/I42A mutant (ligand, also called F41A/I42A (ovine)) VSIRKVQDDTKTLIKTIVTRINDISHTQSVSSKQRVTGLDAAPGLHPLLSLSKMDQTLAIYQQILASLPSRNVIQISNDLENLRDLLHLLAASKSCPLPQVRALESLESLGVVLEASLYSTEVVALSRLQGSLQDMLRQLDLSPGC come in under 30 nM for Kd?
T

In plain terms, does human leptin F41A/I42A mutant (ligand, Expressed with an extra Met-Ala at the N-terminus, Met removed; also called F41A/I42A (human)) VPIQKVQDDTKTLIKTIVTRINDISHTQSVSSKQKVTGLDAAPGLHPILTLSKMDQTLAVYQQILTSMPSRNVIRISNDLENLRDLLHVLAFSKSCHLPWASGLETLDSLGGVLEASGYSTEVVALSRLQGSLQDMLWQLDLSPGC come in under 30 nM for Kd?
F
